The entries below come with measured MBC values attached.
System: B. fragilis WS-1
assay comment: MIC/MBC against Bacteroides fragilis strain E
Assay type: cell-based
test context: WS1, 99.9% reduction in viable count

Example results:
>>> df
                                   molecule     reported
0  CCCC1(C)CN=C2C(c3ccccc3)=[N+]([O-])c3cnccc3N2C1 (stereo not shown) [Example 27]    3.1 µg/mL
1  CC1(C)CN=C2C(c3ccccc3)=[N+]([O-])c3ccncc3N2C1 [Example 14]    3.1 µg/mL
2  CCC1(C)CN=C2C(c3ccc(C)cc3)=[N+]([O-])c3cccnc3N2C1 (stereo not shown) [Example 35]  < 0.8 µg/mL
3  CCCC1(C)CN=C2C(c3ccccc3)=[N+]([O-])c3cccnc3N2C1 (stereo not shown) [Example 28]    1.5 µg/mL
4  CC1(C)CN=C2C(c3ccc(F)cc3)=[N+]([O-])c3cccnc3N2C1 [Example 31]  < 0.8 µg/mL
5  CC1CN=C2C(c3ccccc3)=[N+]([O-])c3cccnc3N2C1 (stereo not shown) [Example 32]  < 0.8 µg/mL

# MBC lookup, item Cc1ccc(C2=[N+]([O-])c3cccnc3N3CC(C)(C)CN=C23)cc1 [Example 20]
< 0.8 µg/mL

Record request: MBC value, item COc1ccc(C2=[N+]([O-])c3cccnc3N3CC(C)(C)CN=C23)cc1OC [Example 22]
< 0.8 µg/mL

Which MBC is reported for this molecule? CC1(C)CN=C2C(c3ccccc3)=[N+]([O-])c3cnccc3N2C1 [Example 15]
1.5 µg/mL

# get_value(readout='MBC', item= [O-][N+]1=C(c2ccccc2)C2=NCC3(CCCCC3)CN2c2ccncc21 [Example 30] )
< 0.8 µg/mL

For the molecule shown here, CC1(C)CN=C2C(c3ccc(Cl)cc3)=[N+]([O-])c3cccnc3N2C1 [Example 18] , give the reported MBC.
< 0.8 µg/mL

Quick one: MBC of CCC1(C)CN=C2C(c3ccccc3)=[N+]([O-])c3cccnc3N2C1 (stereo not shown) [Example 24] ?
< 0.8 µg/mL

What measured MBC goes with CCC1(C)CN=C2C(c3ccccc3)=[N+]([O-])c3cnccc3N2C1 (stereo not shown) [Example 23] ?
3.1 µg/mL

---

Test system: B. fragilis NCTC 9343
assay comment: MIC/MBC against Bacteroides fragilis strain B
Assay type: cell-based
test context: NCTC9343, 99.9% reduction in viable count
metric: MBC (µg/mL)
Respond with the bare value in µg/mL.

Some entries whose results are on file:
                              record_smiles  unit_of_measure  reported
0  CC1(C)CN=C2C(c3ccc(Cl)cc3)=[N+]([O-])c3cnccc3N2C1            µg/mL       1.5
1  CCC1(CC)CN=C2C(c3ccccc3)=[N+]([O-])c3cccnc3N2C1            µg/mL       1.5

Can you share its MBC? I mean this compound: COc1ccc(C2=[N+]([O-])c3cnccc3N3CC(C)(C)CN=C23)cc1OC
1.5

Reported MBC for Cc1ccc(C2=[N+]([O-])c3cnccc3N3CC(C)(C)CN=C23)cc1 : what is it?
1.5

Given [O-][N+]1=C(c2ccccc2)C2=NCC3(CCCCC3)CN2c2ccncc21 , state its recorded MBC.
1.5

Would you mind telling me what MBC value was observed for CCC1(CC)CN=C2C(c3ccccc3)=[N+]([O-])c3cnccc3N2C1 ?
1.5

Recorded MBC of CC1(C)CN=C2C(c3ccccc3)=[N+]([O-])c3ccncc3N2C1 , please.
6.2

For the compound Cc1ccc(C2=[N+]([O-])c3cccnc3N3CC(C)(C)CN=C23)cc1 , what MBC is on record?
6.2

Given the entry CC1(C)CN=C2C(c3ccccc3)=[N+]([O-])c3cccnc3N2C1 , report its measured MBC.
1.5
